The reported numbers originate from patent US20240174680A1.

Target: CDK2/Cyclin E1 (Homo sapiens)
Assay: CDK2/Cyclin E1 Caliper LabChip EZ Reader mobility shift assay
Format: biochemical
Parameters: purchased Eurofins 14-475
Details: read-out: Caliper Assay (CDK2/CCNE1): IC50
pIC50: −log10 of the molar value.
recordedMetric: pIC50

CNC(=O)[C@@H](NC(=O)[C@@H]1CN(C(=O)c2cnn(Cc3ccc(C(=O)O)cc3)c2)CC12CN(C(=O)[C@H]1CC1(C)C)C2)[C@@H](C)OCc1ccccc1 = 5.00 to 6.00
CNC(=O)[C@@H](NC(=O)[C@@H]1CN(C(=O)c2cnn(Cc3ccccc3)c2)CC12CN(C(=O)C1(F)CC1)C2)[C@@H](C)OCc1ccccc1 [I-71A] = 6.00 to 7.00
COC[C@H]1CCCN(C(=O)[C@@H](NC(=O)C2CN(C(=O)c3cncs3)CC23CN(C(=O)[C@H]2CC2(C)C)C3)[C@@H](C)OCC2CCCCC2)C1 (stereo partly drawn) [I-196 mixture] = ≥ 8.00
C[C@@H](OCC1CC(F)(F)C1)[C@@H](CO)NC(=O)[C@@H]1CN(C(=O)c2cncs2)CC12CN(C(=O)[C@H]1CC1(C)C)C2 = 7.00 to 8.00
Cc1ccc2[nH]c(CNC(=O)C3CN(C(=O)c4cnn(Cc5ccccc5)c4)CC34CN(C(=O)[C@H]3CC3(C)C)C4)nc2c1 (stereo partly drawn) = 5.00 to 6.00

Which pIC50 value belongs to CC1(C)C[C@@H]1C(=O)N1CC2(CN(C(=O)c3cnn(Cc4ccccc4)c3)C[C@H]2C(=O)NCc2ccc(Cl)nn2)C1 ?
5.00 to 6.00

====

Reported pIC50 values follow for various compounds
Biological target: CDK2/Cyclin E1 (Homo sapiens, UniProt P24941)
Assay: CDK2/Cyclin E1 Caliper LabChip EZ Reader mobility shift assay
Format: biochemical
Parameters: purchased Eurofins 14-475
Details: read-out: Caliper Assay (CDK2/CCNE1): IC50
pIC50: −log10 of the molar value.

These solved cases illustrate the format of a correct answer.
C[C@@H](OCC1CCCCC1)[C@H](NC(=O)C1CN(C(=O)c2cnn(Cc3ccccc3)c2)CC12CN(C(=O)[C@H]1CC1(C)C)C2)C(=O)NCCC(=O)O (stereo partly drawn) [I-353] = ≥ 8.00
CNC(=O)[C@@H](NC(=O)[C@H]1CN(C(=O)c2cnn(CC3CCOCC3)c2)CC12CN(C(=O)[C@H]1CC1(C)C)C2)[C@@H](C)OCc1ccccc1 [I-95B] = < 5.00
CNC(=O)[C@@H](NC(=O)[C@@H]1CN(C(=O)c2cncs2)CC12CN(C(=O)[C@H]1CC1(C)C)C2)[C@@H](C)OCC1CCC2(CC1)CC2 [I-355] = ≥ 8.00
CNC(=O)C(NC(=O)[C@@H]1CN(C(=O)c2cnn(Cc3ccccc3)c2)CC12CN(C(=O)[C@H]1CC1(C)C)C2)c1cccc(C2CCCCC2)n1 (stereo partly drawn) [I-391] = ≥ 8.00
CNC(=O)[C@@H](NC(=O)C1CN(C(=O)c2cnn(Cc3ccccn3)c2)CC12CN(C(=O)C1CC1(C)C)C2)[C@@H](C)OCc1ccccc1 (stereo partly drawn) [I-11] = 6.00 to 7.00

Which pIC50 value belongs to CC1(C)C[C@@H]1C(=O)N1CC2(CN(C(=O)c3cnn(Cc4ccccc4)c3)C[C@H]2C(=O)N2CCC[C@H](C(=O)NC3CCCCC3)C2)C1 [I-180] ?
6.00 to 7.00
